# EXPERIMENT DESCRIPTION: Inhibition of almond beta-glucosidase pre-incubated for 5 mins followed by p-nitrophenyl-beta-D-glucopyranoside substrate addition and measured after 30 mins by spectrophotometric assay
# Set-up: species or system Prunus dulcis

COMPOUND | SIGN | IC50 / µM
CCCCOC1OCC(CNC(=N)N2C[C@@H](O)[C@H](O)[C@@H](O)C2)O1 (stereo partly drawn) | = | 19.2
CCCCCCCCCN1C[C@H](O)[C@@H](O)[C@H](O)[C@H]1CO | > | 30
CCCCCCCCOC1OCC(CNC(=N)N2C[C@@H](O)[C@H](O)[C@@H](O)C2)O1 (stereo partly drawn) | = | 14.6
